System: ARPE-19 cells
Experiment: Toxicity assessment (cytotoxicity) on ARPE-19 cells
Type: cell-based, human
READOUT TYPE: CC50 (µM)
Dear colleague, please return just the value in µM, with no unit written.

Exercise: Any idea what its CC50 is? The compound is O=[N+]([O-])c1ccc(-c2c3nc(c4ccc([nH]4)c(-c4ccc([N+](=O)[O-])cc4)c4ccc([nH]4)c(-c4ccc([N+](=O)[O-])cc4)c4ccc2[nH]4)C=C3)cc1 [TpNO2Cor, 5,10,15-Tris(4-nitrophenyl)corrole, reference compound]
Key: 25
